Emax at 100 µM reference
target: Cel-EAT-2 and Cel-EAT-18c nAChR (Caenorhabditis elegans); assay: Two-electrode voltage-clamp of Cel-EAT-2 + Cel-EAT-18c nAChR expressed in Xenopus oocytes; format: cell-based; settings: read-out: current response normalized to the control 100 μM ACh current (Imax); agonist 100 μM; mean±SEM, n≥6
Field: numeric (%). Do not append units.

Record excerpt, results attached:
# compound, Emax at 100 µM / %
rows = [
    ("c1cncc([C@@H]2CCCN2)c1 [nornicotine]", 0),
    ("C[N+]1(C)CCN(c2ccccc2)CC1 [DMPP]", 0),
    ("c1cncc([C@@H]2CCCCN2)c1 [anabasine]", 0),
]

Which Emax at 100 µM reading was recorded for the compound C#Cc1cncc([C@@H]2CCCN2C)c1 [SIB 1508Y] ?
0

Field entry: Clc1ccc(C2CC3CCC2N3)cn1 (stereo not drawn) [epibatidine]
25

Field entry: C[N+](C)(CCOc1ccccc1)Cc1ccccc1 [bephenium]
0

Field entry: CN1CCCN=C1/C=C/c1cccs1 [pyrantel]
0

Field entry: C[N+](C)(C)CCOC(N)=O [carbachol]
37

Field entry: CN1[C@@H](CC(=O)c2ccccc2)CCC[C@H]1C[C@H](O)c1ccccc1 [lobeline]
0

Field entry: CC(=O)OC(C)C[N+](C)(C)C (stereo not drawn) [methacholine]
73

Field entry: CN1CCCN=C1/C=C/c1cccc(O)c1 [oxantel]
11

Field entry: c1ccc([C@H]2CN3CCSC3=N2)cc1 [levamisole]
0

###

molecular target: Asu-EAT-2 nAChR (Ascaris suum); experiment: cell-based; format: cell-based, A. suum; details: read-out: current response normalized to the control 100 μM ACh current
Sequence (F1L9Y6 entry or part of it): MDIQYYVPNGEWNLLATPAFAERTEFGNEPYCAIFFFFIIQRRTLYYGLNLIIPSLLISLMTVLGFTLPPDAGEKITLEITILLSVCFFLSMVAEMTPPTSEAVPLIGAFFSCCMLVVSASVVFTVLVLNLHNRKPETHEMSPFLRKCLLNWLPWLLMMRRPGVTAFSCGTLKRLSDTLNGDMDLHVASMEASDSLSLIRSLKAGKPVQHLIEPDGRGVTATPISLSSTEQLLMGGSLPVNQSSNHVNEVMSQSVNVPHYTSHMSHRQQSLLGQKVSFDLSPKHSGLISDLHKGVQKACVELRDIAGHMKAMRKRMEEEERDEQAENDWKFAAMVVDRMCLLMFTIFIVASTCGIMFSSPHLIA
Sequence (F1L1D9 entry or part of it, further chain): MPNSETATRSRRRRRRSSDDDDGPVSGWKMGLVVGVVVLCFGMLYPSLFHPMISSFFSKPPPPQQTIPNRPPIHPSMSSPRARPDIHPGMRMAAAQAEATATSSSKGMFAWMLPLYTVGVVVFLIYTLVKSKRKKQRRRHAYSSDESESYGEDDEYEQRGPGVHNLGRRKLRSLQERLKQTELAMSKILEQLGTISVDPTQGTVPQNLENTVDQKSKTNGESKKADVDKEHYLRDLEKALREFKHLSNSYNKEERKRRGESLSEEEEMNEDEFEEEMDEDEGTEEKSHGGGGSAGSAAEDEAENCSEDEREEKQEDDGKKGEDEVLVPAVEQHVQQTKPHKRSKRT
Emax reference
Field: numeric (%). Do not append units.

Record excerpt, results attached:
# smiles structure, reported result
records = [
    ("C[N+](C)(C)CCO", 0),
    ("CN1CCCN=C1/C=C/c1cccs1", 0),
    ("CN1CCC[C@H]1c1cccnc1", 105),
    ("O=c1cccc2n1C[C@@H]1CNC[C@H]2C1", 81),
]

Which Emax reading was recorded for the compound c1ccc([C@H]2CN3CCSC3=N2)cc1 ?
0

###

target: Cel-EAT-2 + Asu-EAT-18 + Asu-RIC-3 (Caenorhabditis elegans, UniProt Q9U298); experiment: cell-based
metric: pEC50
Scale note: pEC50 = -log10(concentration in M).

Which pEC50 reading was recorded for the compound CN1CCC[C@H]1c1cccnc1 ?
4.73

###

target: Asu-EAT-2 nAChR (Ascaris suum); assay: cell-based; format: cell-based, A. suum; conditions: read-out: current response normalized to the control 100 μM ACh current; mean±SEM, n≥5
The threshold is inclusive: Emax of exactly 3% counts as true; values below receive false.

Here are 4 molecules together with their reported answers.
# molecule, label value
records = [
    ("Cc1ccsc1/C=C/C1=NCCCN1C", "false"),
    ("C[N+](C)(CCOc1ccccc1)Cc1ccccc1", "false"),
    ("Clc1ccc(C2CC3CCC2N3)cn1 (stereo not drawn) [epibatidine]", "true"),
    ("C[N+]1(C)CCN(c2ccccc2)CC1", "true"),
]

Please look at the following molecule next.
Decide: is the reported value of Emax for C[N+](C)(CCOc1ccccc1)Cc1cccs1 equal to or greater than 3%?
false

###

target: Cel-EAT-2 and Cel-EAT-18c nAChR (Caenorhabditis elegans, UniProt Q9U298); assay: Two-electrode voltage-clamp of Cel-EAT-2 + Cel-EAT-18c nAChR expressed in Xenopus oocytes; format: cell-based
Sequence (Q9U298 22-474): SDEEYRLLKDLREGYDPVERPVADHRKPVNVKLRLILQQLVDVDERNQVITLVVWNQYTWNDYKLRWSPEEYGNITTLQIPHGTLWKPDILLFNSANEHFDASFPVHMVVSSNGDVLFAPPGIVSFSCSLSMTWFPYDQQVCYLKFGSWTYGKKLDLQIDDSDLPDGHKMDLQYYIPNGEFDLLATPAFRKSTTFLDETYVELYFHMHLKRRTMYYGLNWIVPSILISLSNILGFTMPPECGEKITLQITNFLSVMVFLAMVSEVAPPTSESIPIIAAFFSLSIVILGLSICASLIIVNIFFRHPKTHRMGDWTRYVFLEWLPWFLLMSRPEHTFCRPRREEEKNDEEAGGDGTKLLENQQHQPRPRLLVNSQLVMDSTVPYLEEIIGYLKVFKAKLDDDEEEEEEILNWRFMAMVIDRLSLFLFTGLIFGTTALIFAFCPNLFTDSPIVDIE
metric: pEC50
Scale note: pEC50 = -log10(concentration in M).

Which pEC50 reading was recorded for the compound CN1CCC[C@H]1c1cccnc1 [nicotine] ?
4.20

Values were extracted from paper PMC7173930.
